Study system: alpha2B adrenergic receptors (Homo sapiens, UniProt P18089)
Measurement notes: Receptor Selection and Amplification Technology (RSAT) assay, alpha2B
Experimental conditions: NA = not active at concentrations less than 10 micromolar, read-out: Alpha 2B EC50
Measured metric: EC50 (nM)

Worked cases, answers included:
[
  {
    "Molecule": "S=c1[nH]cc(CC2CCc3cc(Cl)ccc32)[nH]1 (stereo not drawn)",
    "Recorded result": 1150
  },
  {
    "Molecule": "Fc1ccc(C2=CCCC2Cc2c[nH]c(=S)[nH]2)cc1 (stereo not drawn)",
    "Recorded result": 459
  },
  {
    "Molecule": "S=c1[nH]cc(C2Cc3ccccc3C2)[nH]1",
    "Recorded result": 6
  }
]

I = O=C1c2ccccc2CC[C@@H]1Cc1c[nH]c(=S)[nH]1
II = S=c1[nH]cc(CC2CC=CC2)[nH]1 [drawing 24]
III = CC(C)C1=C(c2ccc(F)cc2)C(Cc2c[nH]c(=S)[nH]2)CC1 (stereo not drawn)
IV = S=c1[nH]cc(CC2C=CCCC2)[nH]1 (stereo not drawn)
input: # desc sort on EC50 across 4 molecules As an answer, provide the labels arranged in the order called for.
output: IV, III, I, II
(IV: 665 nM, III: 269 nM, I: 92 nM, II: 24 nM)

###

System: rats with ligated L5 and L6 spinal nerves
Measurement notes: Chung model of neuropathic pain (tactile allodynia, von Frey hairs)
Type: in vivo
Experimental conditions: Rattus norvegicus, ip, 0.5 h; 10 μg/kg i.p.; 30 min following drug administration; read-out: % Pain Reversal ± SEM
Consider the following molecules and their measured inhibition in vivo at 0.01 mg/kg readings.
Express your answer in %, writing the number without its unit.

[
  {
    "Molecule": "O=c1[nH]cc(CC2CCC3=C2CCC3)[nH]1 (stereo not shown) [Compound 41]",
    "Measured metric": "inhibition in vivo at 0.01 mg/kg",
    "Recorded result": 3
  },
  {
    "Molecule": "S=c1[nH]cc(CC2CC=CC2)[nH]1 [Compound 18]",
    "Measured metric": "inhibition in vivo at 0.01 mg/kg",
    "Recorded result": 5
  },
  {
    "Molecule": "CC1=C(C)C(Cc2c[nH]c(=O)[nH]2)CC1 (stereo not shown) [Compound 44]",
    "Measured metric": "inhibition in vivo at 0.01 mg/kg",
    "Recorded result": 46
  },
  {
    "Molecule": "S=c1[nH]cc(CC2CCc3ccccc32)[nH]1 (stereo not shown) [Compound 7]",
    "Measured metric": "inhibition in vivo at 0.01 mg/kg",
    "Recorded result": 58
  }
]

Briefly, inhibition in vivo at 0.01 mg/kg measured for S=c1[nH]cc(CC2CCc3sccc3C2)[nH]1 (stereo not shown) [Compound 29] : 17

Briefly, inhibition in vivo at 0.01 mg/kg measured for O=C1c2ccccc2CCC1Cc1c[nH]c(=S)[nH]1 (single isomer, unassigned) [Compound 23] : 74

Briefly, inhibition in vivo at 0.01 mg/kg measured for O=c1[nH]cc(CC2CCc3cc(F)ccc32)[nH]1 (stereo not shown) [Compound 49] : 39

###

Study system: alpha2B adrenergic receptors (Homo sapiens, UniProt P18089)
Construct: expressed in transfected cells; host or cells: NIH-3T3
Sequence (P18089 1-450): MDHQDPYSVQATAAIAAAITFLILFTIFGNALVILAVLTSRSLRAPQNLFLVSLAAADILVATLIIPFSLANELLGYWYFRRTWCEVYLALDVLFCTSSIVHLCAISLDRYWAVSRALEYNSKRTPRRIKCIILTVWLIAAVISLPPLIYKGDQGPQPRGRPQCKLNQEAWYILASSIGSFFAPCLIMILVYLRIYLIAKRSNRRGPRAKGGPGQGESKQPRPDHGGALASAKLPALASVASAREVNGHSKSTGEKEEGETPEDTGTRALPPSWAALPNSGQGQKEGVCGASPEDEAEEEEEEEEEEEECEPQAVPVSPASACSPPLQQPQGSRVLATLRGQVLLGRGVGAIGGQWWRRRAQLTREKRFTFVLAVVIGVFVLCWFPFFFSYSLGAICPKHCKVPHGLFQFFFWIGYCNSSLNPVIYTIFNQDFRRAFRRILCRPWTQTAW
Measurement notes: Receptor Selection and Amplification Technology (RSAT) assay, alpha2B
Type: cell-based
Experimental conditions: fraction of maximal effect of standard full agonist brimonidine (UK14304)
Measured metric: Alpha 2B intrinsic activity

[
  {
    "Compound": "Cc1ccc(C)c2c1CC(c1c[nH]c(=S)[nH]1)C2",
    "Study system": "alpha2B adrenergic receptors (Homo sapiens, UniProt P18089)",
    "Alpha 2B intrinsic activity": 1.27
  }
]

I = O=C1c2ccc(O)cc2CCC1Cc1c[nH]c(=S)[nH]1 (stereo not drawn)
II = S=c1[nH]cc(CC2CCc3ncccc3C2)[nH]1 (stereo not drawn)
III = CCC1=C(C)CCC(Cc2c[nH]c(=S)[nH]2)C1 (stereo not drawn)
input: Rank ascending by Alpha 2B intrinsic activity. As an answer, provide the labels arranged in the order called for.
output: I, II, III
(I: 0.48, II: 0.74, III: 1.08)

A = N#C/C=C1/c2ccccc2CCC1Cc1c[nH]c(=S)[nH]1 (stereo not drawn)
B = Cc1ccc2c(c1)C(Cc1c[nH]c(=S)[nH]1)CC2 (stereo not drawn)
input: I need your help: which of the pair A , B has higher Alpha 2B intrinsic activity? API: response body contains the label of the selected item.
output: B

a = CC1=C(C)CC(Cc2c[nH]c(=S)[nH]2)CC1 (stereo not drawn)
b = S=c1[nH]cc(CC2CCCc3cccnc32)[nH]1 (stereo not drawn)
input: Look at a and b . Which one has the lower recorded Alpha 2B intrinsic activity number? API: response body contains the label of the selected item.
output: a

###

Study system: alpha2B adrenergic receptors (Homo sapiens, UniProt P18089)
Construct: expressed in transfected cells; host or cells: NIH-3T3
Measurement notes: Receptor Selection and Amplification Technology (RSAT) assay, alpha2B
Type: cell-based
Experimental conditions: fraction of maximal effect of standard full agonist brimonidine (UK14304)
Measured metric: Alpha 2B intrinsic activity

A = CC1CC(Cc2c[nH]c(=S)[nH]2)c2ccccc21 (stereo not drawn)
B = Fc1cc(F)cc(C2=CCC[C@@H]2Cc2c[nH]c(=S)[nH]2)c1
input: Look at A and B . Which one has the lower recorded Alpha 2B intrinsic activity number? API: response body contains the label of the selected item.
output: B
(B: 0.59, A: 1.01)

###

Study system: alpha2B adrenergic receptors (Homo sapiens)
Measurement notes: Receptor Selection and Amplification Technology (RSAT) assay, alpha2B
Experimental conditions: NA = not active at concentrations less than 10 micromolar, read-out: Alpha 2B EC50
Text: The imidazole-2-thione compounds of the invention are agonists of alpha2 adrenergic receptors, particularly they tend to be specific or selective agonists of alpha2B and/or to a lesser extent alpha2C adrenergic receptors, in preference over alpha2A adrenergic receptors. […] Al., 1995, Pharmacol. Toxicol. 76, pp. 308-311 (incorporated herein by reference) and is also described below. […]
pEC50: −log10 of the molar value.
Measured metric: pEC50

Worked cases, answers included:
[
  {
    "Compound": "O=C1c2c(CO)cccc2CCC1Cc1c[nH]c(=S)[nH]1 (stereo not shown)",
    "Study system": "alpha2B adrenergic receptors (Homo sapiens)",
    "Measured metric": "pEC50",
    "Recorded result": 6.79
  },
  {
    "Compound": "CC1=C(c2ccc(F)cc2)C(Cc2c[nH]c(=S)[nH]2)CC1 (stereo not shown)",
    "Study system": "alpha2B adrenergic receptors (Homo sapiens)",
    "Measured metric": "pEC50",
    "Recorded result": 7.29
  },
  {
    "Compound": "Fc1ccc2c(c1)C(Cc1c[nH]c(=S)[nH]1)CC2 (stereo not shown)",
    "Study system": "alpha2B adrenergic receptors (Homo sapiens)",
    "Measured metric": "pEC50",
    "Recorded result": 7.47
  },
  {
    "Compound": "O=C1C2=C(CCCC2)CCC1Cc1c[nH]c(=S)[nH]1 (stereo not shown)",
    "Study system": "alpha2B adrenergic receptors (Homo sapiens)",
    "Measured metric": "pEC50",
    "Recorded result": 6.09
  },
  {
    "Compound": "CCCC1=C(c2ccc(F)cc2)C(Cc2c[nH]c(=S)[nH]2)CC1 (stereo not shown)",
    "Study system": "alpha2B adrenergic receptors (Homo sapiens)",
    "Measured metric": "pEC50",
    "Recorded result": 6.22
  },
  {
    "Compound": "S=c1[nH]cc(C2CCc3ccccc3C2)[nH]1 (stereo not shown)",
    "Study system": "alpha2B adrenergic receptors (Homo sapiens)",
    "Measured metric": "pEC50",
    "Recorded result": 7.47
  },
  {
    "Compound": "S=c1[nH]cc(CC2CCC=C2c2cccs2)[nH]1 (stereo not shown)",
    "Study system": "alpha2B adrenergic receptors (Homo sapiens)",
    "Measured metric": "pEC50",
    "Recorded result": 6.63
  },
  {
    "Compound": "Fc1ccc2c(c1)CC(c1c[nH]c(=S)[nH]1)C2 (stereo not shown)",
    "Study system": "alpha2B adrenergic receptors (Homo sapiens)",
    "Measured metric": "pEC50",
    "Recorded result": 7.52
  },
  {
    "Compound": "S=c1[nH]cc(C2Cc3ccc(Cl)c(Cl)c3C2)[nH]1 (stereo not shown)",
    "Study system": "alpha2B adrenergic receptors (Homo sapiens)",
    "Measured metric": "pEC50",
    "Recorded result": 8.15
  },
  {
    "Compound": "O=C1c2ccccc2CCC1Cc1c[nH]c(=S)[nH]1 (stereo not shown)",
    "Study system": "alpha2B adrenergic receptors (Homo sapiens)",
    "Measured metric": "pEC50",
    "Recorded result": 7.74
  }
]

A = Cc1cccc2c1CCC2Cc1c[nH]c(=S)[nH]1 (stereo not shown)
B = S=c1[nH]cc(C2Cc3cccc(Br)c3C2)[nH]1 (stereo not shown)
C = Fc1ccc(C2=C(C3CC3)CCC2Cc2c[nH]c(=S)[nH]2)cc1 (stereo not shown)
input: Rank ascending by pEC50. As an answer, provide the labels arranged in the order called for.
output: A, C, B
(A: 7.24, C: 7.49, B: 8.30)
